Tested on: 786-O
Test details: Euclidean distance of Cell Painting phenotypic profile (signed KS, 77 features) to DMSO centroid (dimensionless distance); 5 or 10 uM (library dependent); higher = stronger phenotypic change vs DMSO (phenoactivity)
Experimental parameters: 48 h
Structures can show the parent of a compound that is named as a salt.
Endpoint label: Euclidean distance
# answer = number (no unit)

Examples with their reported Euclidean distance follow.
{"columns": ["Molecule", "Euclidean distance"],
 "data": [
  ["CN1CCCC(n2nc(Cc3ccc(Cl)cc3)c3ccccc3c2=O)CC1 (centres undefined) [Azelastine HCl]", 1.09],
  ["Oc1ccc(OC2CCCCO2)cc1 (centres undefined)", 1.11],
  ["Nc1ncnc2c1ncn2[C@@H]1O[C@H](CO)[C@@H](O)[C@@H]1O [Vidarabine monohydrate]", 0.895],
  ["C[C@H](Oc1cc(-c2cnn(C3CCNCC3)c2)cnc1N)c1c(Cl)ccc(F)c1Cl [(S)-crizotinib]", 3.79],
  ["CC1(C)Cc2c(-c3ccccc3)c(-c3ccc(Cl)cc3)c(CC(=O)O)n2C1", 0.977]
]}

Consider the molecule O=C1Nc2ccccc2C1=O and give its measured Euclidean distance. 0.739

Here is the next molecule: COc1cc2nc(N3CCN(C(=O)C4CCCO4)CC3)nc(N)c2cc1OC (centres undefined) [Terazosin HCl Dihydrate] 1.02

Please give the result for CCN(CC)C(=O)C1(c2ccccc2)CC1CN (centres undefined) [Milnacipran HCl] too. 1.2

Would you mind doing CN(C)Cc1cccc(N/C(=C2\C(=O)Nc3cc(C(N)=O)ccc32)c2ccccc2)c1 as well? 1.11

How about CS(=O)(=O)c1ccc(C2=C(c3ccccc3)C(=O)OC2)cc1 ? 1.05

Another molecule: O[C@@H](COc1cccc2ncccc12)CN1CCN(C2c3ccccc3[C@@H]3[C@H](c4ccccc42)C3(F)F)CC1 (some centres undefined) 1.12

What would you report for CCCCC1=NC2(CCCC2)C(=O)N1Cc1ccc(-c2ccccc2-c2nnn[nH]2)cc1 ? 1.03

One more molecule: COc1cc2c(cc1OC)-c1cc3ccc(OC)c(OC)c3c[n+]1CC2 0.525

Same lookup for NC(=O)Nc1sc(-c2ccc(F)cc2)cc1C(N)=O , please. 1.85

Moving on to the next molecule: COC1=C(OC)C(=O)C(CCCCCCCCCCO)=C(C)C1=O 1.45

Can you handle Cc1cccc(N(C)C(=S)Oc2ccc3ccccc3c2)c1 [Tolnaftate] next? 1.29

What about this molecule? COc1cc2nc(N3CCN(C(=O)C4CCCO4)CC3)nc(N)c2cc1OC (centres undefined) [Terazosin HCl] 1.12

Next record, please: CCC[C@@H](C=O)NC(=O)[C@H](CC(C)C)NC(=O)[C@H](CC(C)C)NC(=O)OCc1ccccc1 5.22

What do you get for COC(=O)CCC(=O)CN [Methyl Aminolevulinate Hydrochloride] ? 1.52

###

Listed here: items and their measured Euclidean distance.
Tested on: FB
Test details: Euclidean distance of Cell Painting phenotypic profile (signed KS, 77 features) to DMSO centroid (dimensionless distance); 5 or 10 uM (library dependent); higher = stronger phenotypic change vs DMSO (phenoactivity)
Experimental parameters: 48 h
Structures can show the parent of a compound that is named as a salt.

{"columns": ["Compound", "Reading"],
 "data": [
  ["CC(=O)Oc1cccc2c1C(=O)c1c(OC(C)=O)cc(C(=O)O)cc1C2=O", 1.22],
  ["CC(CNC(=O)c1cccnc1)NC(=O)c1cccnc1 (stereo not given)", 1],
  ["CCCCCCCCc1ccc(CCC(N)(CO)CO)cc1", 2.18]
]}

Given Cc1nccn1CC1CCc2c(c3ccccc3n2C)C1=O (stereo not given) [Ondansetron Hydrochloride Dihydrate] , state its recorded Euclidean distance. 1.01

What about this compound? CCC(=O)NC[C@@H]1C[C@H]1c1cccc2c1CCO2 1.26

Check OCC(O)CN1CCN(c2ccccc2)CC1 (stereo not given) too. 1.1

Try Nc1nc2[nH]cnc2c(=S)[nH]1 next. 0.807

###

Readings of Euclidean distance for the listed compounds
Test system: 786-O
Test details: Euclidean distance of Cell Painting phenotypic profile (signed KS, 77 features) to DMSO centroid (dimensionless distance); 5 or 10 uM (library dependent); higher = stronger phenotypic change vs DMSO (phenoactivity)
Experimental parameters: 48 h
Counter-ions that a name gives are not always drawn.
Format: numeric value only, no unit, no commentary.

Reference set, count: 2
{"columns": ["Compound", "Endpoint label", "Reading"],
 "data": [
  ["CO[C@H]1/C=C/O[C@@]2(C)Oc3c(C)c(O)c4c(O)c(c5c(nc6cc(C)ccn65)c4c3C2=O)NC(=O)/C(C)=C\\C=C\\[C@H](C)[C@H](O)[C@@H](C)[C@@H](O)[C@@H](C)[C@H](OC(C)=O)[C@@H]1C", "Euclidean distance", 1.35],
  ["C[C@H]1COc2c(C3(N)CC3)c(F)cc3c(=O)c(C(=O)O)cn1c23 [Pazufloxacin mesylate]", "Euclidean distance", 1]
]}

Reported Euclidean distance, compound O=S(=O)(O)CCCCOC[C@H]1O[C@@H]2O[C@H]3[C@H](O)[C@@H](O)[C@@H](O[C@H]4[C@H](O)[C@@H](O)[C@@H](O[C@H]5[C@H](O)[C@@H](O)[C@@H](O[C@H]6[C@H](O)[C@@H](O)[C@@H](O[C@H]7[C@H](O)[C@@H](O)[C@@H](O[C@H]8[C@H](O)[C@@H](O)[C@@H](O[C@H]1[C@H](O)[C@H]2O)O[C@@H]8CO)O[C@@H]7COCCCCS(=O)(=O)O)O[C@@H]6COCCCCS(=O)(=O)O)O[C@@H]5COCCCCS(=O)(=O)O)O[C@@H]4COCCCCS(=O)(=O)O)O[C@@H]3COCCCCS(=O)(=O)O [Captisol (SBE-Œ≤-CD)] : ____ 1.09

What do we get for CC(C)C[C@H](NC(=O)CNC(=O)c1cc(Cl)ccc1Cl)B1OC(=O)C(CC(=O)O)(CC(=O)O)O1 ? 4.77

###

Euclidean distance for assorted molecules
Test system: HEPG2
Test details: Euclidean distance of Cell Painting phenotypic profile (signed KS, 77 features) to DMSO centroid (dimensionless distance); 5 or 10 uM (library dependent); higher = stronger phenotypic change vs DMSO (phenoactivity)
Experimental parameters: 48 h
Where a name gives a salt, the structure may show the parent alone.
Write the number on its own, no unit after it.

Worked examples follow.
{"columns": ["Molecule", "Euclidean distance"],
 "data": [
  ["CCOc1ccc2c(-c3cccc(F)c3)nn(CC(=O)N(C)c3ccc4nc(C)oc4c3)c(=O)c2c1", 0.431],
  ["Cn1cc(-c2ccc(S(=O)(=O)n3ccc(/C=C/C(=O)Nc4ccccc4N)c3)cc2)cn1", 3.21],
  ["CC(=O)NS(=O)(=O)c1ccc(N)cc1 [Sulfacetamide sodium salt hydrate]", 0.38],
  ["CC(C)[C@@H](C)/C=C/[C@@H](C)[C@H]1CC[C@H]2C3=CC=C4C[C@@H](O)CC[C@]4(C)[C@H]3CC[C@]12C [Ergosterol]", 0.946]
]}

# value lookup — system HEPG2, readout Euclidean distance, item CCCCc1oc2ccc(NS(C)(=O)=O)cc2c1C(=O)c1ccc(OCCCN(CCCC)CCCC)cc1 [Dronedarone] 4.6

How about C#CCC(Cc1cnc2nc(N)nc(N)c2n1)c1ccc(C(=O)N[C@@H](CCC(=O)O)C(=O)O)cc1 (stereo partly drawn) [Pralatrexate] ? 1.73

Would you mind doing CCN(C(=O)c1c(O)c2c(Cl)cccc2n(C)c1=O)c1ccccc1 [Laquinimod] as well? 0.638

Please do the same for CC(=O)CC/C=C(\C)CC/C=C(\C)CC/C=C(\C)CCC=C(C)C [Teprenone] as well. 1.1

###

System: HEPG2
Test details: Euclidean distance of Cell Painting phenotypic profile (signed KS, 77 features) to DMSO centroid (dimensionless distance); 5 or 10 uM (library dependent); higher = stronger phenotypic change vs DMSO (phenoactivity)
Experimental parameters: 48 h
Returns one of condition met or condition not met; condition met when Euclidean distance is >= 0.9.

Example results:
{"columns": ["Molecule", "Label value"],
 "data": [
  ["COc1ccc(CN2CCN(C(c3ccc(F)cc3)c3ccc(F)cc3)CC2)c(OC)c1OC [Lomerizine 2HCl]", "condition met"],
  ["COc1cc(OC)cc(N(CCNC(C)C)c2ccc3ncc(-c4cnn(C)c4)nc3c2)c1", "condition met"],
  ["COc1cc2c(cc1Cc1cccc(Cl)c1F)c(=O)c(C(=O)O)cn2[C@H](CO)C(C)C [Elvitegravir (GS-9137. JTK-303)]", "condition not met"],
  ["C=CC(=O)N1CCC([C@@H]2CCNc3c(C(N)=O)c(-c4ccc(Oc5ccccc5)cc4)nn32)CC1 [Zanubrutinib (BGB-3111)]", "condition not met"],
  ["N#CC[C@H](C1CCCC1)n1cc(-c2ncnc3[nH]ccc23)cn1", "condition not met"],
  ["CCC(=O)NC[C@@H]1C[C@H]1c1cccc2c1CCO2 [Tasimelteon]", "condition not met"],
  ["CO[C@H]1C[C@@H]2CC[C@@H](C)[C@@](O)(O2)C(=O)C(=O)N2CCCC[C@H]2C(=O)O[C@H]([C@H](C)C[C@@H]2CC[C@@H](OP(C)(C)=O)[C@H](OC)C2)CC(=O)[C@H](C)/C=C(\\C)[C@@H](O)[C@@H](OC)C(=O)[C@H](C)C[C@H](C)/C=C/C=C/C=C/1C [Ridaforolimus (Deforolimus. MK-8669)]", "condition met"],
  ["C=CCCCCCCCCC(=O)[O-].C=CCCCCCCCCC(=O)[O-].[Zn+2] [Zinc Undecylenate]", "condition not met"]
]}

Could you verify whether the entry Oc1cc(O)c(Cl)cn1 [Gimeracil] shows Euclidean distance of no less than 0.9? condition met

How about O=C(c1cccc(Cl)c1F)N1CCN(Cc2cccc(Nc3nccs3)n2)CC1 ? condition met

Same lookup for O=C(O)[C@@H](S)[C@@H](S)C(=O)O [Succimer] , please. condition not met

O=C(c1ccc(NS(=O)(=O)c2cccc3cccnc23)cc1)N1CCN(CC2CC2)CC1 [Mitapivat] ? condition met

Also C1=N/C2=N/c3ccc(OCCN4CCCC4)c(c3)COC/C=C/COCc3cccc(c3)C(=C1)N2 [Pacritinib (SB1518)] ? condition met

Now consider c1ccc(NCc2ccc(CNc3ccccn3)cc2)nc1 and answer again. condition met

meta.source: the supplement of paper PMC10127200
